assay_overview: Exposure–response relationship: Cox proportional hazards models on progression-free survival
Format: in vivo, human
measurement_parameters: human, plasma, oral; model-predicted, including OFF-treatment periods; read-out: median AUCcum90 (mean cumulative AUC0-24 over 90 days)
measurement_label: mean cumulative AUC0-24 over 90 days (AUCcum90) (ng·h/mL)
Numbers only here, please. The scale is ng·h/mL.

Q) Consider the molecule CC(=O)c1c(C)c2cnc(Nc3ccc(N4CCNCC4)cn3)nc2n(C2CCCC2)c1=O [palbociclib, Palbociclib] and give its measured mean cumulative AUC0-24 over 90 days (AUCcum90).
A) 1140

====

assay_overview: clinical
measurement_parameters: human, in vivo, Vc/F (apparent central volume of distribution)
measurement_label: Vd/F
Number first, unit second.

Q) Consider the molecule `CC(=O)c1c(C)c2cnc(Nc3ccc(N4CCNCC4)cn3)nc2n(C2CCCC2)c1=O` and give its measured Vd/F.
A) 2800 L
